- target.or.test.system: Feline FcRn complex (FcRn-alpha subunit and beta-microglobulin) (feline)
- procedure.details: SPR (Biacore), feline FcRn captured on SA chip, IgG flowed over, pH 6
Threshold-based label: Kd under 6 nM gives YES, Kd not under 6 nM gives NO.

[Q] Consider the binder feline IgG1a Fc mutant S428M, S434F (antibody, part only; not given: variable domains and light chain, not shown: another chain or arm of the molecule; small tags and cut ends) constant: ASTTAPSVFPLAPSCGTTSGATVALACLVLGYFPEPVTVSWNSGALTSGVHTFPAVLQASGLYSLSSMVTVPSSRWLSDTFTCNVAHPPSNTKVDKTVRKTDHPPGPKPCDCPKCPPPEMLGGPSIFIFPPKPKDTLSISRTPEVTCLVVDLGPDDSDVQITWFVDNTQVYTAKTSPREEQFNSTYRVVSVLPILHQDWLKGKEFKCKVNSKSLPSPIERTISKAKGQPHEPQVYVLPPAQEELSRNKVSVTCLIKSFHPPDIAVEWEITGQPEPENNYRTTPPQLDSDGTYFVYSKLSVDRSHWQRGNTYTCSVMHEALHFHHTQKSLTQSPGK . Is its Kd strictly less than 6 nM?
[A] YES

[Q] Consider the binder feline IgG1a Fc mutant Q311H, S428L (antibody, part only; not given: Variable domains, not shown: another chain or arm of the molecule; small tags and cut ends) constant: ASTTAPSVFPLAPSCGTTSGATVALACLVLGYFPEPVTVSWNSGALTSGVHTFPAVLQASGLYSLSSMVTVPSSRWLSDTFTCNVAHPPSNTKVDKTVRKTDHPPGPKPCDCPKCPPPEMLGGPSIFIFPPKPKDTLSISRTPEVTCLVVDLGPDDSDVQITWFVDNTQVYTAKTSPREEQFNSTYRVVSVLPILHHDWLKGKEFKCKVNSKSLPSPIERTISKAKGQPHEPQVYVLPPAQEELSRNKVSVTCLIKSFHPPDIAVEWEITGQPEPENNYRTTPPQLDSDGTYFVYSKLSVDRSHWQRGNTYTCSVLHEALHSHHTQKSLTQSPGK . Is its Kd strictly less than 6 nM?
[A] NO

[Q] Consider the binder feline IgG1a Fc mutant S428M, S252H (antibody, part only; not given: Variable domains, not shown: another chain or arm of the molecule; small tags and cut ends) constant: ASTTAPSVFPLAPSCGTTSGATVALACLVLGYFPEPVTVSWNSGALTSGVHTFPAVLQASGLYSLSSMVTVPSSRWLSDTFTCNVAHPPSNTKVDKTVRKTDHPPGPKPCDCPKCPPPEMLGGPSIFIFPPKPKDTLHISRTPEVTCLVVDLGPDDSDVQITWFVDNTQVYTAKTSPREEQFNSTYRVVSVLPILHQDWLKGKEFKCKVNSKSLPSPIERTISKAKGQPHEPQVYVLPPAQEELSRNKVSVTCLIKSFHPPDIAVEWEITGQPEPENNYRTTPPQLDSDGTYFVYSKLSVDRSHWQRGNTYTCSVMHEALHSHHTQKSLTQSPGK . Is its Kd strictly less than 6 nM?
[A] NO

[Q] Consider the binder feline IgG1a Fc mutant Q311L, S428M (antibody, part only; not given: Variable domains, not shown: another chain or arm of the molecule; small tags and cut ends) constant: ASTTAPSVFPLAPSCGTTSGATVALACLVLGYFPEPVTVSWNSGALTSGVHTFPAVLQASGLYSLSSMVTVPSSRWLSDTFTCNVAHPPSNTKVDKTVRKTDHPPGPKPCDCPKCPPPEMLGGPSIFIFPPKPKDTLSISRTPEVTCLVVDLGPDDSDVQITWFVDNTQVYTAKTSPREEQFNSTYRVVSVLPILHLDWLKGKEFKCKVNSKSLPSPIERTISKAKGQPHEPQVYVLPPAQEELSRNKVSVTCLIKSFHPPDIAVEWEITGQPEPENNYRTTPPQLDSDGTYFVYSKLSVDRSHWQRGNTYTCSVMHEALHSHHTQKSLTQSPGK . Is its Kd strictly less than 6 nM?
[A] YES

[Q] Consider the binder feline IgG1a Fc mutant S428Y, S252W (antibody, part only; not given: Variable domains, not shown: another chain or arm of the molecule) constant: ASTTAPSVFPLAPSCGTTSGATVALACLVLGYFPEPVTVSWNSGALTSGVHTFPAVLQASGLYSLSSMVTVPSSRWLSDTFTCNVAHPPSNTKVDKTVRKTDHPPGPKPCDCPKCPPPEMLGGPSIFIFPPKPKDTLWISRTPEVTCLVVDLGPDDSDVQITWFVDNTQVYTAKTSPREEQFNSTYRVVSVLPILHQDWLKGKEFKCKVNSKSLPSPIERTISKAKGQPHEPQVYVLPPAQEELSRNKVSVTCLIKSFHPPDIAVEWEITGQPEPENNYRTTPPQLDSDGTYFVYSKLSVDRSHWQRGNTYTCSVYHEALHSHHTQKSLTQSPGK . Is its Kd strictly less than 6 nM?
[A] YES

[Q] Consider the binder feline IgG1a Fc mutant S428Y, S252F (antibody, part only; not given: Variable domains, not shown: another chain or arm of the molecule) constant: ASTTAPSVFPLAPSCGTTSGATVALACLVLGYFPEPVTVSWNSGALTSGVHTFPAVLQASGLYSLSSMVTVPSSRWLSDTFTCNVAHPPSNTKVDKTVRKTDHPPGPKPCDCPKCPPPEMLGGPSIFIFPPKPKDTLFISRTPEVTCLVVDLGPDDSDVQITWFVDNTQVYTAKTSPREEQFNSTYRVVSVLPILHQDWLKGKEFKCKVNSKSLPSPIERTISKAKGQPHEPQVYVLPPAQEELSRNKVSVTCLIKSFHPPDIAVEWEITGQPEPENNYRTTPPQLDSDGTYFVYSKLSVDRSHWQRGNTYTCSVYHEALHSHHTQKSLTQSPGK . Is its Kd strictly less than 6 nM?
[A] NO

Provenance of the data: patent US20240400708A1
